- protocol summary: Food effect PK study, two single oral 1000 mg doses of abiraterone acetate, fed (high fat) vs fasted
- Format: in vivo, human
- details: human, plasma, oral, 1000 mg, Patient 13; Fasted; sample time 24.667 hr
- Experimental: To measure the amount of abiraterone and abiraterone acetate in the samples, these compounds were extracted from 100 uL human plasma using solid phase extraction (SPE) with cation mixed-mode polymer cartridges. Extracts were evaporated to dryness before reconstitution and analysis. Chromatography was carried out using a Luna™ C5 column (5 μm, 50 mm×2.1 mm id) with a gradient mobile phase consisting of 10 mM ammonium acetate and 2% propan-2-ol in acetonitrile. […]
quantity measured: concentration at 24.667 hr (nM)
Expressed in nM, but write only the number.

For the compound C[C@]12CC[C@H](O)CC1=CC[C@@H]1[C@@H]2CC[C@]2(C)C(c3cccnc3)=CC[C@@H]12 , give its measured concentration at 24.667 hr value.
34.1

###

- protocol summary: Food effect PK study, two single oral 1000 mg doses of abiraterone acetate, fed (high fat) vs fasted
- Assay type: in vivo, human
- details: human, plasma, oral, 1000 mg, Patient 15; 1000 mg; Fed; read-out: Vz F obs
quantity measured: Vd/F (L)
Give the value in L but do not write L after it.

Give Vd/F for C[C@]12CC[C@H](O)CC1=CC[C@@H]1[C@@H]2CC[C@]2(C)C(c3cccnc3)=CC[C@@H]12
3190

###

- protocol summary: Food effect PK study, two single oral 1000 mg doses of abiraterone acetate, fed (high fat) vs fasted
- Format: in vivo, human
- details: human, plasma, oral, 1000 mg, Patient 13; Fed; sample time 48.500 hr
- Protocol: To measure the amount of abiraterone and abiraterone acetate in the samples, these compounds were extracted from 100 uL human plasma using solid phase extraction (SPE) with cation mixed-mode polymer cartridges. Extracts were evaporated to dryness before reconstitution and analysis. Chromatography was carried out using a Luna™ C5 column (5 μm, 50 mm×2.1 mm id) with a gradient mobile phase consisting of 10 mM ammonium acetate and 2% propan-2-ol in acetonitrile. […]
quantity measured: concentration at 48.5 hr (nM)
Give a bare numeral; the unit nM is implied.

Given C[C@]12CC[C@H](O)CC1=CC[C@@H]1[C@@H]2CC[C@]2(C)C(c3cccnc3)=CC[C@@H]12 , respond with its concentration at 48.5 hr.
26.8

###

- protocol summary: Food effect PK study, two single oral 1000 mg doses of abiraterone acetate, fed (high fat) vs fasted
- Type: in vivo, human
- details: human, plasma, oral, 1000 mg, Patient 13; Fed
quantity measured: Tmax (h)
# value in h; strip the unit string

Please give measured Tmax of the following entry: C[C@]12CC[C@H](O)CC1=CC[C@@H]1[C@@H]2CC[C@]2(C)C(c3cccnc3)=CC[C@@H]12 [Abiraterone]
4

###

- protocol summary: Food effect PK study, two single oral 1000 mg doses of abiraterone acetate, fed (high fat) vs fasted
- Format: in vivo, human
- details: human, plasma, oral, 1000 mg, Patient 19; Fasted; sample time 2.083 hr
- Procedure: To measure the amount of abiraterone and abiraterone acetate in the samples, these compounds were extracted from 100 uL human plasma using solid phase extraction (SPE) with cation mixed-mode polymer cartridges. Extracts were evaporated to dryness before reconstitution and analysis. Chromatography was carried out using a Luna™ C5 column (5 μm, 50 mm×2.1 mm id) with a gradient mobile phase consisting of 10 mM ammonium acetate and 2% propan-2-ol in acetonitrile. […]
quantity measured: concentration at 2.083 hr (nM)
Could you give me the number in nM? Just the number is fine.

Give a short answer stating reported concentration at 2.083 hr for C[C@]12CC[C@H](O)CC1=CC[C@@H]1[C@@H]2CC[C@]2(C)C(c3cccnc3)=CC[C@@H]12 .
71.9

###

- protocol summary: Food effect PK study, two single oral 1000 mg doses of abiraterone acetate, fed (high fat) vs fasted
- Type: in vivo, human
- details: human, plasma, oral, 1000 mg, Patient 19; Fed
quantity measured: AUC(0-inf) (µM·h)
Give your result in µM·h as a bare value.

Provide AUC(0-inf) value for the following molecule: C[C@]12CC[C@H](O)CC1=CC[C@@H]1[C@@H]2CC[C@]2(C)C(c3cccnc3)=CC[C@@H]12
9.73

###

- protocol summary: Pharmacokinetic study of abiraterone in hormone refractory prostate cancer patients, oral doses 250-2000 mg/day, fasted
- Type: in vivo, human
- details: male, human; mean; 250 mg/day abiraterone acetate oral, fasted; plasma
quantity measured: Tmax (h)
Provide only the numeric value, understood in h.

State its Tmax for this compound: C[C@]12CC[C@H](O)CC1=CC[C@@H]1[C@@H]2CC[C@]2(C)C(c3cccnc3)=CC[C@@H]12 [Abiraterone]
2.05

###

- protocol summary: Pharmacokinetic study of abiraterone in hormone refractory prostate cancer patients, oral doses 250-2000 mg/day, fasted
- Assay type: in vivo, human
- details: male, human; mean; 750 mg/day abiraterone acetate oral, fasted; plasma
quantity measured: Cmax (nM)
Your answer should be a plain number; it is taken to be in nM.

Give a short answer stating reported Cmax for C[C@]12CC[C@H](O)CC1=CC[C@@H]1[C@@H]2CC[C@]2(C)C(c3cccnc3)=CC[C@@H]12 [Abiraterone] .
1030

###

- protocol summary: Food effect PK study, two single oral 1000 mg doses of abiraterone acetate, fed (high fat) vs fasted
- Assay type: in vivo, human
- details: human, plasma, oral, 1000 mg, Patient 15; Fasted; sample time 5.983 hr
quantity measured: concentration at 5.983 hr (nM)
Please reply with the bare figure in nM and do not write the unit itself.

Input C[C@]12CC[C@H](O)CC1=CC[C@@H]1[C@@H]2CC[C@]2(C)C(c3cccnc3)=CC[C@@H]12 , output reported concentration at 5.983 hr.
131

###

- protocol summary: Food effect PK study, two single oral 1000 mg doses of abiraterone acetate, fed (high fat) vs fasted
- Assay type: in vivo, human
- details: human, plasma, po, 1000 mg, mean; 1000 mg single oral dose; Fed
quantity measured: Cmax
Report the figure along with its unit, number first.

Indicate its recorded Cmax; the compound in question is C[C@]12CC[C@H](O)CC1=CC[C@@H]1[C@@H]2CC[C@]2(C)C(c3cccnc3)=CC[C@@H]12 [Abiraterone]
1.4 µM

###

- protocol summary: Food effect PK study, two single oral 1000 mg doses of abiraterone acetate, fed (high fat) vs fasted
- Format: in vivo, human
- details: human, plasma, oral, 1000 mg, Patient 20; Fasted
quantity measured: Tmax (h)
Answer in h, number only, no unit symbol.

Please give the documented Tmax of C[C@]12CC[C@H](O)CC1=CC[C@@H]1[C@@H]2CC[C@]2(C)C(c3cccnc3)=CC[C@@H]12
2.27

###

- protocol summary: Food effect PK study, two single oral 1000 mg doses of abiraterone acetate, fed (high fat) vs fasted
- Type: in vivo, human
- details: human, plasma, oral, 1000 mg, Patient 20; Fasted
quantity measured: Cmax (nM)
Give your result in nM as a bare value.

Give reported Cmax value for C[C@]12CC[C@H](O)CC1=CC[C@@H]1[C@@H]2CC[C@]2(C)C(c3cccnc3)=CC[C@@H]12 [Abiraterone]
1700

###

- protocol summary: Food effect PK study, two single oral 1000 mg doses of abiraterone acetate, fed (high fat) vs fasted
- Type: in vivo, human
- details: human, plasma, oral, 1000 mg, Patient 21; Fasted
quantity measured: AUC(0-t)

Give the reported value of AUC(0-t) for this record: C[C@]12CC[C@H](O)CC1=CC[C@@H]1[C@@H]2CC[C@]2(C)C(c3cccnc3)=CC[C@@H]12 [Abiraterone]
6.93 µM·h

###

- protocol summary: Food effect PK study, two single oral 1000 mg doses of abiraterone acetate, fed (high fat) vs fasted
- Type: in vivo, human
- details: human, plasma, oral, 1000 mg, Patient 20; Fasted; sample time 24.283
quantity measured: concentration at 24.283 h (nM)
Answer with a number only, understood to be in nM.

Please indicate concentration at 24.283 h recorded for C[C@]12CC[C@H](O)CC1=CC[C@@H]1[C@@H]2CC[C@]2(C)C(c3cccnc3)=CC[C@@H]12 [Abiraterone]
118

###

- protocol summary: Food effect PK study, two single oral 1000 mg doses of abiraterone acetate, fed (high fat) vs fasted
- Assay type: in vivo, human
- details: human, plasma, oral, 1000 mg, Patient 21; Fed; sample time 8.033
quantity measured: concentration at 8.033 h (nM)
Only the number, expressed in nM, is required.

Tell me concentration at 8.033 h reported for C[C@]12CC[C@H](O)CC1=CC[C@@H]1[C@@H]2CC[C@]2(C)C(c3cccnc3)=CC[C@@H]12
372

###

- protocol summary: Food effect PK study, two single oral 1000 mg doses of abiraterone acetate, fed (high fat) vs fasted
- Format: in vivo, human
- details: human, plasma, oral, 1000 mg, Patient 14; Fed; sample time 24.083 hr
quantity measured: concentration at 24.083 hr (nM)
Entry rule: numbers only, all in nM.

Assign concentration at 24.083 hr to the following record: C[C@]12CC[C@H](O)CC1=CC[C@@H]1[C@@H]2CC[C@]2(C)C(c3cccnc3)=CC[C@@H]12 [Abiraterone]
79.7
